target or system: EGFR TMLRCS (T790M/L858R/C797S) in BaF3-TMLRCS cell line (Homo sapiens, UniProt P00533, C797S/L858R/T790M)
Sequence (P00533 25-1210 T790M/C797S/L858R): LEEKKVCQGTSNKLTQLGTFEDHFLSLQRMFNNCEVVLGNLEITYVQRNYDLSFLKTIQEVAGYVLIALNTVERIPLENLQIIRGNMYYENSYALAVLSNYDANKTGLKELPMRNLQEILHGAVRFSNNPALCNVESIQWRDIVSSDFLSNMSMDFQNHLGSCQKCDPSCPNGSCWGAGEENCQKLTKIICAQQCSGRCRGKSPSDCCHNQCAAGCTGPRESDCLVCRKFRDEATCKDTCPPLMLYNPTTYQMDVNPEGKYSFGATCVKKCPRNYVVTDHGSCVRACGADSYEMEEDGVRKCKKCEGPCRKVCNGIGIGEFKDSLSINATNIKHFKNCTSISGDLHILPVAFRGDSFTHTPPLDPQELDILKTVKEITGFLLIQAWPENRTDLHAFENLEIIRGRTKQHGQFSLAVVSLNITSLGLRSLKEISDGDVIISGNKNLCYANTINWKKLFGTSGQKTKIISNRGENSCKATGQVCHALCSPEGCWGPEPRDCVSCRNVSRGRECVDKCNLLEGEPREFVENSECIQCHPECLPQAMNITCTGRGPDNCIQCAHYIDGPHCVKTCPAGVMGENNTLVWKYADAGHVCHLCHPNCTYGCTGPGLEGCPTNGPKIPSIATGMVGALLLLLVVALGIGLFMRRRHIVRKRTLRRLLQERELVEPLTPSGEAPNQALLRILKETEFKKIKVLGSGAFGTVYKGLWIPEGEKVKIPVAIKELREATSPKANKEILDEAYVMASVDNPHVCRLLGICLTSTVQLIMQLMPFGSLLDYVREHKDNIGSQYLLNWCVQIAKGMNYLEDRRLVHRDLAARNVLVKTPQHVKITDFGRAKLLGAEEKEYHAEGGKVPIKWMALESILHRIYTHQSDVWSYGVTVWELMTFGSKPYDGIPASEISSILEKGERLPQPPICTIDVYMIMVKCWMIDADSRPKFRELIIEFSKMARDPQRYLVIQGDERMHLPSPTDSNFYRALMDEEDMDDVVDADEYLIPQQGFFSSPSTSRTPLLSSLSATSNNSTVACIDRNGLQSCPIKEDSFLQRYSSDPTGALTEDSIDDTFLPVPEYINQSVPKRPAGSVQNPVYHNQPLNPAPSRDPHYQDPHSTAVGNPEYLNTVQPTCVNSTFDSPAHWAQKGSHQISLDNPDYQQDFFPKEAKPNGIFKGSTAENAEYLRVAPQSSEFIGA
assay method text: HTRF Phospho EGFR TMLRCS Assay (Cellular)
test parameters: BaF3-TMLRCS cells, 4 hours incubation
measurement name: pIC50
A value of pIC50 is the negative decimal logarithm of a concentration given in moles per litre.

Ask | Entry O=C(Nc1nccs1)C(c1ncn2c1CCC2)N1Cc2c(cc(C#Cc3ccc(CN4CCC(O)CC4)cc3)cc2C(F)(F)F)C1=O (racemic) : reported pIC50 = ?
Reply | 7.85
